Items are presented alongside their recorded %Inh.
System: FRK
Conditions: concentration: 1 μM, replicates: in singlicate; n = 1;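 note: KINOMEscan kinase panel screen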
Write the number in % without appending the unit.

[[record]]
smiles = "COc1ccc(-c2oc3ncnc(N)c3c2-c2ccc(OC)cc2)cc1"
quantity_kind = "%Inh"
meas_value = 17


Task: Can you look up the measured %Inh of c1ccc(-c2ccc3c(-c4ccnc(Nc5ccc6c(c5)OCCO6)n4)cnn3n2)cc1 for me?
Output: 9

Task: %Inh for Fc1ccc(Nc2nccc(-c3c(-c4ccc(Cl)cc4)nn4ncccc34)n2)cc1F ?
Output: 32

====

Tested on: MARK3
Settings: concentration: 1 μM, replicates: in singlicate; n = 1
QUANTITY_KIND: %Inh (%)
Reply with just the number (in %).

[[record]]
smiles = "O=C(Nc1ccccc1)Nc1ccc(Oc2ccc3nccn3n2)cc1"
assayed_system = "MARK3"
meas_value = 9

[[record]]
smiles = "COC(=O)c1cccc(NC(=O)NCCNc2ccnc(Nc3ccc(F)cc3)n2)c1"
assayed_system = "MARK3"
meas_value = 0

[[record]]
smiles = "CCc1nc(-c2cccc(N(C)S(=O)(=O)c3ccccc3)c2)c(-c2ccnc(Nc3ccc(N4CCN(C(C)=O)CC4)nc3)n2)s1"
assayed_system = "MARK3"
meas_value = 0

[[record]]
smiles = "CC(C)(C)c1ccc(-n2cnc3c(N)ncnc32)cc1"
assayed_system = "MARK3"
meas_value = 0

[[record]]
smiles = "Cc1cc(N2CCC(NS(=O)(=O)c3ccc(F)cc3)CC2)nc(Nc2cccc(C#N)c2)n1.O=C(O)C(F)(F)F"
assayed_system = "MARK3"
meas_value = 0


Task: Which measured %Inh belongs to Clc1ccc(-c2cc(-c3c[nH]nc3-c3ccccn3)ccn2)cc1 , tested on MARK3?
Output: 0

Task: Recorded %Inh for COc1cc2ncnc(Nc3ccc(OCc4ccccc4Br)c(Cl)c3)c2cc1OC.Cl with MARK3, please?
Output: 1

Task: // fetch MARK3 %Inh for Nc1nc(-c2cccnc2)c(-c2ccnc3ccccc23)s1
Output: 0

Task: Record OCCOCCn1ccc2ncnc(Nc3ccc(Oc4cccc(Cl)c4)c(Cl)c3)c21 : what is its %Inh with MARK3?
Output: 0

Task: Reported %Inh for MARK3, given Cl.c1ccc(Cn2ncc3cc(Nc4ncnc5ccccc45)ccc32)cc1 ?
Output: 0

Task: What %Inh appears in the records for this compound with MARK3? Cc1ccc(O)cc1Nc1cc(C(F)(F)F)nc2ccc(-c3ccncc3)cc12
Output: 0

Task: Value wanted: %Inh (MARK3) of entry Cc1cccc(-c2nc(Nc3ccc4[nH]nnc4c3)c3ccccc3n2)n1
Output: 18

Task: Query the reported %Inh for MARK3; item: COc1cc2c(Nc3cccc(NC(=O)c4ccccc4)c3)ncnc2cc1OCCCN1CCOCC1
Output: 0

Task: What value of %Inh on MARK3 does Clc1cc(Nc2ncnc3cc[nH]c23)ccc1OCc1ccccn1 have?
Output: 5

Task: Any idea what %Inh came out for CS(=O)(=O)CCNCc1ccc(-c2ccc3ncnc(Nc4ccc(OCc5ccccc5)c(Cl)c4)c3c2)o1.Cl on MARK3?
Output: 3

Task: Give %Inh (MARK3) of the following compound: Clc1cccc(-c2nc(Nc3ccncc3)c3ccccc3n2)c1
Output: 32

Task: Form field: %Inh recorded for CC(=O)Nc1n[nH]c2ncc(-c3ccccc3)cc12 with MARK3 (enter value)
Output: 0

Task: Record C[C@H]1CC[C@@H](C(=O)Nc2ccccc2)CN1c1cc(-c2ccc3c(N)n[nH]c3c2)nc(N)n1 : what is its %Inh with MARK3?
Output: 0

====

Entries and their %Inh
Tested on: SBK1
Conditions: concentration: 1 μM, replicates: in singlicate; n = 1
Provide only the numeric value, understood in %.

[[record]]
compound = "C[C@@H]1CCN(C(=O)CO)C[C@@H]1N(C)c1ncnc2[nH]ccc12"
meas_value = 0


Task: // query %Inh value for entry Cl.c1ccc(Cn2ncc3cc(Nc4ncnc5ccccc45)ccc32)cc1
Output: 7

Task: Fill blank: measured %Inh of the compound CC(C)(C)OC(=O)NC1CCCN(c2cc(-c3ccc4c(N)n[nH]c4c3)nc(N)n2)C1 (stereo not drawn) is ____.
Output: 15

====

Tested on: ROS1
Details: concentration: 1 μM, replicates: in singlicate; n = 1
QUANTITY_KIND: %Inh (%)
A number alone suffices; assume %.

[[record]]
compound = "COc1ccc(-c2oc3ncnc(N)c3c2-c2ccc(OC)cc2)cc1"
quantity_kind = "%Inh"
meas_value = 0

[[record]]
compound = "CCC(CC)(CC)n1cnc2c(N)ncnc21"
quantity_kind = "%Inh"
meas_value = 0

[[record]]
compound = "CCc1nc(-c2cccc(C)c2)c(-c2ccnc(NC(=O)c3ccccc3)c2)s1"
quantity_kind = "%Inh"
meas_value = 0

[[record]]
compound = "O=C(CCO)NCCn1ccc2ncnc(Nc3ccc(Oc4cccc(C(F)(F)F)c4)c(Cl)c3)c21"
quantity_kind = "%Inh"
meas_value = 0

[[record]]
compound = "COc1cc2c(Nc3cccc(NC(=O)c4ccccc4)c3)ncnc2cc1OCCCN1CCOCC1"
quantity_kind = "%Inh"
meas_value = 0

[[record]]
compound = "O=C(Nc1ccccc1)Nc1ccc(Oc2ccc3nccn3n2)cc1"
quantity_kind = "%Inh"
meas_value = 0

[[record]]
compound = "O=c1cc(N2CCOCC2)nc2n(Cc3cccc(Cl)c3)ccn12"
quantity_kind = "%Inh"
meas_value = 0

[[record]]
compound = "CC(C)(C)OC(=O)NC1CCCN(c2cc(-c3ccc4c(N)n[nH]c4c3)nc(N)n2)C1 (stereo not drawn)"
quantity_kind = "%Inh"
meas_value = 0

[[record]]
compound = "CS(=O)(=O)CCNCc1ccc(-c2ccc3ncnc(Nc4ccc(OCc5ccccc5)c(Cl)c4)c3c2)o1.Cl"
quantity_kind = "%Inh"
meas_value = 0

[[record]]
compound = "COc1ccc(Nc2nccc(N3CCC(NC(=O)Nc4ccc5c(c4)OCO5)C3)n2)cc1 (stereo not drawn)"
quantity_kind = "%Inh"
meas_value = 34


Task: Request the reported %Inh associated with COc1ccc(NC(=O)Nc2ccc(C)c(-c3ccc(C(=O)Nc4ccncc4)cc3)c2)cc1
Output: 0

Task: Which measured %Inh value corresponds to CSc1nn2c(=O)cc(N3CCOCC3)nc2n1Cc1cccc(Cl)c1Cl ?
Output: 46

Task: Returns the measured %Inh for the input compound. Input: Fc1ccc(Nc2nccc(-c3c(-c4ccc(Cl)cc4)nn4ncccc34)n2)cc1F
Output: 14

====

System: MST3
Construct: gene STK24
Conditions: concentration: 1 μM, replicates: in singlicate; n = 1
Here, each record is paired with measured %Inh data.
Your answer is read as %, so omit the unit and give the number.

Task: Consider the molecule Cc1cc(N2CCC(NS(=O)(=O)c3ccc(F)cc3)CC2)nc(Nc2cccc(C#N)c2)n1.O=C(O)C(F)(F)F and give its measured %Inh.
Output: 7

Task: What does the record list as %Inh for Nc1nc(-c2cccnc2)c(-c2ccnc3ccccc23)s1 ?
Output: 10

Task: What measured %Inh goes with CSc1nn2c(=O)cc(N3CCOCC3)nc2n1Cc1cccc(Cl)c1Cl ?
Output: 4

Task: I am curious: what %Inh value has been reported for CCc1nc(-c2cccc(N(C)S(=O)(=O)c3ccccc3)c2)c(-c2ccnc(Nc3ccc(N4CCN(C(C)=O)CC4)nc3)n2)s1 ?
Output: 15

Task: // returns reported %Inh for input CC(C)N1CCC(n2cnc(-c3ccc(F)cc3)c2-c2ccnc(N)n2)CC1
Output: 29

====

System: DRAK1
Construct: gene STK17A
Conditions: concentration: 1 μM, replicates: in singlicate; n = 1
QUANTITY_KIND: %Inh (%)
Please give a number only; it is taken to be in %.

Reference set (5 entries):
[[record]]
smiles = "O=C(CCO)NCCn1ccc2ncnc(Nc3ccc(Oc4cccc(C(F)(F)F)c4)c(Cl)c3)c21"
assayed_system = "DRAK1"
quantity_kind = "%Inh"
readout_units = "%"
meas_value = 0

[[record]]
smiles = "Nc1nc(-c2ccccn2)c(-c2ccnc3ccccc23)s1"
assayed_system = "DRAK1"
quantity_kind = "%Inh"
readout_units = "%"
meas_value = 0

[[record]]
smiles = "CCC(CC)(CC)n1cnc2c(N)ncnc21"
assayed_system = "DRAK1"
quantity_kind = "%Inh"
readout_units = "%"
meas_value = 7

[[record]]
smiles = "NC(=O)c1sc(-n2cnc3ccccc32)cc1OCc1ccccc1F"
assayed_system = "DRAK1"
quantity_kind = "%Inh"
readout_units = "%"
meas_value = 4

[[record]]
smiles = "CC(C)(C)c1ccc(-n2cnc3c(N)ncnc32)cc1"
assayed_system = "DRAK1"
quantity_kind = "%Inh"
readout_units = "%"
meas_value = 85


Task: Look up %Inh: CC(=O)Nc1n[nH]c2ncc(-c3ccccc3)cc12
Output: 20

Task: # %Inh lookup, item CSc1ccc(NC2=C(c3ccccc3Cl)C(=O)NC2=O)cc1
Output: 0

====

Test system: MAP4K5
Details: concentration: 1 μM, replicates: in singlicate; n = 1
QUANTITY_KIND: %Inh (%)
Return type: number; implicit unit %.

Some compounds with known %Inh results, for comparison:
[[record]]
compound = "Cc1cccc(-c2nc(Nc3ccc4[nH]nnc4c3)c3ccccc3n2)n1 [GW867587]"
meas_value = 0

[[record]]
compound = "Cn1cc(-c2ccc3c(c2)CCN3C(=O)Cc2cccc(C(F)(F)F)c2)c2c(N)ncnc21 [GSK2606414]"
meas_value = 10

[[record]]
compound = "O=c1cc(N2CCOCC2)nc2n(Cc3cccc(Cl)c3)ccn12 [GSK2296823]"
meas_value = 0


Task: # lookup: %Inh of COc1ccc(Nc2nccc(N3CCC(NC(=O)Nc4ccc5c(c4)OCO5)C3)n2)cc1 (centres unmarked) [GSK1379745]
Output: 4

Task: Returns the measured %Inh for the input compound. Input: CC(C)(C)c1ccc(-n2cnc3c(N)ncnc32)cc1 [SKF-97263]
Output: 6

Task: Entry under review: O=C(c1ccc(-c2cc(-c3c[nH]nc3-c3ccccn3)ccn2)cc1)N1CCCC1 [GW792479] . Reported %Inh?
Output: 0

Task: Quick one: %Inh of CSc1nn2c(=O)cc(N3CCOCC3)nc2n1Cc1cccc(Cl)c1Cl [GSK2347225] ?
Output: 12

Task: Data request, read-out %Inh, for CN1CCC(n2cnc(-c3ccc(F)cc3)c2-c2ccnc(NC3CCNCC3)n2)CC1 [SB-229482]
Output: 0

Task: Item Cc1ccc(O)cc1Nc1cc(C(F)(F)F)nc2ccc(-c3ccncc3)cc12 [GW630823] has what recorded %Inh?
Output: 0

Task: Which %Inh value belongs to Fc1cccc(COc2ccc(Nc3ncnc4sc(-c5ccc[nH]5)cc34)cc2Cl)c1 [GW707818] ?
Output: 3

Task: Value lookup for %Inh; key = Cn1ccc2ncnc(Nc3ccc(Oc4cccc(Cl)c4)c(Cl)c3)c21
Output: 0

Task: Please report the recorded %Inh for COc1ccc(-c2oc3ncnc(N)c3c2-c2ccc(OC)cc2)cc1 [SB-589132] .
Output: 0

Task: Sample Fc1ccc(Nc2nccc(-c3c(-c4ccc(Cl)cc4)nn4ncccc34)n2)cc1F [GW829058] — what was its %Inh?
Output: 6

Task: Entry COc1cc2ncnc(Nc3ccc(OCc4ccccc4Br)c(Cl)c3)c2cc1OC.Cl [GI261590] has what %Inh?
Output: 17

Task: Please give the measured %Inh for this compound: CCc1nc(-c2cccc(N(C)S(=O)(=O)c3ccccc3)c2)c(-c2ccnc(Nc3ccc(N4CCN(C(C)=O)CC4)nc3)n2)s1 [GSK1645895]
Output: 17
